Target: KMO mouse enzyme (Mus musculus, UniProt Q91WN4)
Construct: KMO enzyme prepared at Evotec from mouse liver (4-6 weeks old) via mitochondria isolation; from tissue; host or cells: mouse liver (4-6 weeks old), isolated mitochondria, prepared at Evotec
Sequence (Q91WN4 whole entry): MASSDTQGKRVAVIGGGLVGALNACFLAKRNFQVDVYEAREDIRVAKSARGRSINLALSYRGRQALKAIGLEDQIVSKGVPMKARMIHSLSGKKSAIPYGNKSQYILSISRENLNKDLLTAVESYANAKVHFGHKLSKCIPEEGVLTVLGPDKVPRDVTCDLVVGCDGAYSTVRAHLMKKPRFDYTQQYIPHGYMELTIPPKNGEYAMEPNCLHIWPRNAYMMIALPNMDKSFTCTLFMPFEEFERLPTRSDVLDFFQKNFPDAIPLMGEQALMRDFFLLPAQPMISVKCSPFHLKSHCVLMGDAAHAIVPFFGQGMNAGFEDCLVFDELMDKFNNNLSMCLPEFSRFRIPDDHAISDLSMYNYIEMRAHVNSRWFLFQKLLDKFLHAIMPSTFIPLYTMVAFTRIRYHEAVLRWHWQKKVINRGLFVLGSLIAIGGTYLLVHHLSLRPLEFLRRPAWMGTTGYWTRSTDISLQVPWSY
Experiment: KMO mouse enzyme assay: L-Kynurenine hydroxylation to 3-Hydroxy-Kynurenine by LC/MS (protocols substantially similar to Example 33)
Assay type: biochemical
Details: compound at 30 µM; KMO enzyme from mouse liver mitochondria; 100 μM L-Kynurenine; 40 min at RT
% Inhibition at 30 µM values by entry
ASSAY_METRIC: % Inhibition at 30 µM

>>> reported_measurement("N[C@@H](CCCCNC(=O)[C@H]1C[C@@H]1C(=O)c1ccc(Cl)c(Cl)c1)C(=O)O")
"98%"
>>> reported_measurement("O=C([O-])[C@H]1C[C@@H]1C(=O)c1ccc(C(F)(F)F)c(Cl)c1.[Na+]")
"102%"
>>> reported_measurement("Cc1ccc(C(=O)[C@H]2C[C@@H]2C(=O)[O-])cc1Cl.[Na+]")
"100%"
>>> reported_measurement("CC(C)Oc1ccc(C(=O)[C@H]2C[C@@H]2C(=O)[O-])cc1Cl.[Na+]")
"102%"
>>> reported_measurement("C[N+](C)(C)CC(CC(=O)O)OC(=O)[C@H]1C[C@@H]1C(=O)c1ccc(Cl)c(Cl)c1 (some centres unmarked)")
"99%"

----------
Target: KMO mouse enzyme (Mus musculus)
Construct: KMO enzyme prepared at Evotec from mouse liver (4-6 weeks old) via mitochondria isolation; from tissue; host or cells: mouse liver (4-6 weeks old), isolated mitochondria, prepared at Evotec
Experiment: KMO mouse enzyme assay: L-Kynurenine hydroxylation to 3-Hydroxy-Kynurenine by LC/MS (protocols substantially similar to Example 33)
Type: biochemical
Details: compound at 30 µM; KMO enzyme from mouse liver mitochondria; 100 μM L-Kynurenine; 40 min at RT
inhibition at 30 µM values by entry
ASSAY_METRIC: inhibition at 30 µM (%)

>>> reported_measurement("C[C@H]1[C@H](C(=O)O)[C@H]1C(=O)c1ccc(Cl)c(Cl)c1 (single isomer, unassigned)")
101
>>> reported_measurement("CCCCOC(=O)[C@H]1C[C@@H]1C(=O)c1ccc(Cl)c(Cl)c1")
101
>>> reported_measurement("O=C(c1ccc(F)c(Cl)c1)[C@H]1C[C@@H]1c1noc(=O)[nH]1")
101
>>> reported_measurement("O=C(O)[C@H]1C[C@@H]1C(=O)c1cccc(Cl)c1")
105
>>> reported_measurement("C[C@H]1[C@@H](C(=O)O)[C@@H]1C(=O)c1ccc(Cl)c(Cl)c1 (single isomer, unassigned)")
101
>>> reported_measurement("O=C(O)[C@H]1C[C@@H]1C(=O)c1ccc(OC2CC2)c(Cl)c1")
101
>>> reported_measurement("CC(OC(=O)[C@H]1C[C@@H]1C(=O)c1ccc(Cl)c(Cl)c1)OC(=O)[C@H]1C[C@@H]1C(=O)c1ccc(Cl)c(Cl)c1")
98
>>> reported_measurement("O=C(O)[C@H]1C[C@@H]1C(=O)c1ccc(F)c(Cl)c1")
102
>>> reported_measurement("CCN(CC)CCOC(=O)[C@H]1C[C@@H]1C(=O)c1ccc(Cl)c(Cl)c1")
102
>>> reported_measurement("O=C(NCCO)[C@H]1C[C@@H]1C(=O)c1ccc(Cl)c(Cl)c1")
94
>>> reported_measurement("C[C@]1(C(=O)O)C[C@@H]1C(=O)c1ccc(Cl)c(Cl)c1")
98.6
>>> reported_measurement("CC(C)COC(=O)[C@H]1C[C@@H]1C(=O)c1ccc(Cl)c(Cl)c1")
101
>>> reported_measurement("O=C(O)[C@H]1N[C@@H]1C(=O)c1ccc(Cl)c(Cl)c1")
101
>>> reported_measurement("O=C(O)[C@H]1C[C@@H]1C(=O)c1ccc(F)c(F)c1")
88
>>> reported_measurement("N#C[C@H]1C[C@@H]1C(=O)c1ccc(Cl)c(Cl)c1")
68
>>> reported_measurement("C[C@@H]1[C@H](C(=O)O)[C@H]1C(=O)c1ccc(Cl)c(Cl)c1 (single isomer, unassigned)")
52.5
>>> reported_measurement("O=C(O)[C@H]1C[C@@H]1C(=O)c1cc(Cl)cc(Cl)c1")
103
>>> reported_measurement("O=C(O)[C@H]1C[C@@H]1C(=O)c1ccc(Cl)c(Cl)c1")
106
>>> reported_measurement("CC(=O)OC(C)OC(=O)[C@H]1C[C@@H]1C(=O)c1ccc(Cl)c(Cl)c1 (some centres unmarked)")
103
>>> reported_measurement("CC(C)OC(=O)[C@H]1C[C@@H]1C(=O)c1ccc(Cl)c(Cl)c1")
101
